# ASSAY_INFO: Pharmacokinetic study, oral gavage to CD-1 mice, blood analyzed by LC-MS/MS
# Type: in vivo
# ASSAY_CONDITIONS: mouse, whole blood, po; 10 mg/kg, 1d-single dose, male CD-1 mice, fed, blood analysis, 0.5%CMC+0.5%Tween80

[
  {
    "COMPOUND": "CON=c1nc[nH]c2c1ccn2[C@@H]1O[C@H]([C@H](O)c2ccc(Cl)c(Cl)c2)[C@@H](O)[C@H]1O.Cl [PRT382]",
    "AUC": "11700 ng·h/mL"
  }
]

* * *

# System: Mec-1 cells
# ASSAY_INFO: Cell growth curves over 12 days, Mec-1
# Format: cell-based
# ASSAY_CONDITIONS: Mec-1, 10 nM, day 10
Form field: Rep 1 Live Cells [Fold Change] (one value per entry).

[
  {
    "MOLECULE": "O=C(NC[C@H](O)CN1CCc2ccccc2C1)c1cc(NC2COC2)ncn1 [EPZ015666]",
    "Rep 1 Live Cells [Fold Change] [Fold Change]": 534.674
  },
  {
    "MOLECULE": "CON=c1nc[nH]c2c1ccn2[C@@H]1O[C@H]([C@H](O)c2ccc(Cl)c(Cl)c2)[C@@H](O)[C@H]1O.Cl [PRT382]",
    "Rep 1 Live Cells [Fold Change] [Fold Change]": 909
  },
  {
    "MOLECULE": "Nc1ncnc2c1ccn2[C@@H]1O[C@H]([C@H](O)c2ccccc2)[C@@H](O)[C@H]1O [LLY-283]",
    "Rep 1 Live Cells [Fold Change] [Fold Change]": 156
  },
  {
    "MOLECULE": "Nc1ncnc2c1ccn2C1OC(C(O)c2ccc(Cl)c(F)c2)C(O)C1O (centres unmarked) [PF-06855800]",
    "Rep 1 Live Cells [Fold Change] [Fold Change]": 14.1
  },
  {
    "MOLECULE": "Nc1nc2cc(CC[C@H]3C[C@@H](n4ccc5c(N)ncnc54)[C@H](O)[C@@H]3O)ccc2cc1Br [JNJ-64619178]",
    "Rep 1 Live Cells [Fold Change] [Fold Change]": 4.93
  }
]

* * *

# ASSAY_INFO: Pharmacokinetic study, oral gavage to CD-1 mice, blood analyzed by LC-MS/MS
# Assay type: in vivo
# ASSAY_CONDITIONS: mouse, whole blood, po; 100 mg/kg, 1d-single dose, male CD-1 mice, fed, blood analysis, 0.5%CMC+0.5%Tween80

[
  {
    "COMPOUND": "CON=c1nc[nH]c2c1ccn2[C@@H]1O[C@H]([C@H](O)c2ccc(Cl)c(Cl)c2)[C@@H](O)[C@H]1O.Cl [PRT382]",
    "Tmax, min": 40.2
  }
]

* * *

# ASSAY_INFO: Pharmacokinetic study, oral gavage to CD-1 mice, blood analyzed by LC-MS/MS
# Format: in vivo
# ASSAY_CONDITIONS: 100 mg/kg, 1d-single dose, male CD-1 mice, fed, blood analysis, time 24 h
OBSERVED_PROPERTY: blood concentration at time point 24 h (ng/mL)

[
  {
    "RECORD_SMILES": "CON=c1nc[nH]c2c1ccn2[C@@H]1O[C@H]([C@H](O)c2ccc(Cl)c(Cl)c2)[C@@H](O)[C@H]1O.Cl",
    "EXPERIMENTAL_VALUE": 7
  }
]
